B1: Ferrienterobactin receptor, P05825 (parent)
chain: MNKKIHSLALLVNLGIYGVAQAQEPTDTPVSHDDTIVVTAAEQNLQAPGVSTITADEIRKNPVARDVSKIIRTMPGVNLTGNSTSGQRGNNRQIDIRGMGPENTLILIDGKPVSSRNSVRQGWRGERDTRGDTSWVPPEMIERIEVLRGPAAARYGNGAAGGVVNIITKKGSGEWHGSWDAYFNAPEHKEEGATKRTNFSLTGPLGDEFSFRLYGNLDKTQADAWDINQGHQSARAGTYATTLPAGREGVINKDINGVVRWDFAPLQSLELEAGYSRQGNLYAGDTQNTNSDSYTRSKYGDETNRLYRQNYALTWNGGWDNGVTTSNWVQYEHTRNSRIPEGLAGGTEGKFNEKATQDFVDIDLDDVMLHSEVNLPIDFLVNQTLTLGTEWNQQRMKDLSSNTQALTGTNTGGAIDGVSTTDRSPYSKAEIFSLFAENNMELTDSTIVTPGLRFDHHSIVGNNWSPALNISQGLGDDFTLKMGIARAYKAPSLYQTNPNYILYSKGQGCYASAGGCYLQGNDDLKAETSINKEIGLEFKRDGWLAGVTWFRNDYRNKIEAGYVAVGQNAVGTDLYQWDNVPKAVVEGLEGSLNVPVSETVMWTNNITYMLKSENKTTGDRLSIIPEYTLNSTLSWQAREDLSMQTTFTWYGKQQPKKYNYKGQPAVGPETKEISPYSIVGLSATWDVTKNVSLTGGVDNLFDKRLWRAGNAQTTGDLAGANYIAGAGAYTYNEPGRTWYMSVNTHF

Variants of: B1
Conditions: Escherichia coli (strain K12); pH 7; 25 °C; GdnHCl; ESR; MOPS 20 mM; structure 1FEP; whole UniProt chain shown
Result Type: denaturant m value

E270C 4.08 kcal/mol/M
Q278C 1.31 kcal/mol/M
S268C 4.21 kcal/mol/M
G274C 5.28 kcal/mol/M
E272C 5.76 kcal/mol/M
L266C 3.25 kcal/mol/M

// moving on: another record for denaturant m value
Prompt: Given S276C , respond with its denaturant m value.
Completion: 4.61 kcal/mol/M
